Each entry below carries its reported growth.
System: DU-145 prostate
assay.explanation: NCI-60 one-dose screen, 48 h (100 = growth as untreated, 0 = no growth, -100 = all killed)
cond: 10 µM unless noted
Procedure: Cells are grown in 96 well plates and exposed to the test compound for 48 hours. Compounds are tested at a single concentration, which is 10^-5 M for most compounds. The reported endpoint is percent growth (GI% or GIPRCNT), where numbers from 0 - 100% represent growth inhibition, and numbers from -100% - 0 represent cell death. For example, a value of 40 represents 60% growth inhibition. A value of 0 means no net growth occurred over the course of the experiment. […]
The panel holds about 83,000 compounds, 20% with a hit somewhere; the sample as a whole holds those more often.
measured.attribute: growth (%)

| molecule | scale.unit | assay.result |
| --- | --- | --- |
| CCC(C)(C)c1ccc(OCCCCCCN2CCN(c3ccc(C)c(Cl)c3)CC2)cc1 | % | 86 |
| CCCCCCCCCCCCCCCCCC1=NCCN1CCNC(C)=O | % | 69.7 |
| CC(CCN1CCN(CCC(C)CC(C)(C)C)C1CC(C)CC(C)(C)C)CC(C)(C)C (stereo not given) | % | 103 |
| CCOc1ccccc1/C=N\N=C(N/N=C/c1ccccc1OCC)N/N=C/c1ccccc1OCC | % | 16.1 |
| Cc1nc2c(nnn2-c2ccccc2)c2nc(-c3ccc(Cl)cc3)oc(=O)c12 | % | 119 |
| CC(C)CCCCCOC(=O)c1ccccc1SSc1ccccc1C(=O)OCCCCCC(C)C | % | 112 |
| CCOC1=C(Cl)C(=O)C(OCC)=C(Cl)C1=O | % | 106 |
| CCOC(=O)c1c(C)oc2ncnc(Nc3ccc(C(=O)NCCc4ccccc4)cc3)c12 | % | 82.1 |
| Clc1ccc(N/N=C(\c2ccccc2)c2ccccn2)nc1 | % | 22.7 |
| O=C1N/C(=N\c2nnc(-c3ccc(O)cc3)s2)S/C1=C\c1ccccc1O | % | 95.2 |
